Where do these numbers come from? They come from ChEMBL document CHEMBL3233012.

Property: zone of inhibition at 25 µg/disc; scope: individual compounds
tested on: Aspergillus niger; assay: Antimicrobial activity against Aspergillus niger at 25 ug/well after 48 hrs by agar well diffusion method; assay type: functional; conditions: read-out: DIZ

COMPOUND | zone of inhibition at 25 µg/disc (mm)
Cc1cc(Nc2nc3ccccc3o2)nc(SCc2nc3ccccc3o2)n1 | 15
Cc1cc(Sc2nc3ccccc3s2)nc(SCc2nc3ccccc3s2)n1 | 10
Cc1cc(Sc2nc3ccccc3o2)nc(SCc2nc3ccccc3o2)n1 | 8
Cc1cc(Nc2nc3ccccc3[nH]2)nc(SCc2nc3ccccc3[nH]2)n1 | 20
Cc1cc(SCc2nc3ccccc3o2)nc(SCc2nc3ccccc3o2)n1 | 20
Cc1cc(Nc2nc3ccccc3s2)nc(SCc2nc3ccccc3s2)n1 | 17
CC(=O)N1CCN(c2ccc(OCC3COC(Cn4ccnc4)(c4ccc(Cl)cc4Cl)O3)cc2)CC1 (stereo unspecified) [KETOCONAZOLE] | 31
Cc1cc(Sc2nc3ccccc3[nH]2)nc(SCc2nc3ccccc3[nH]2)n1 | 14
Cc1cc(Cl)nc(SCc2nc3ccccc3[nH]2)n1 | 7
Cc1cc(SCc2nc3ccccc3s2)nc(SCc2nc3ccccc3s2)n1 | 24
Cc1cc(SCc2nc3ccccc3[nH]2)nc(SCc2nc3ccccc3[nH]2)n1 | 27
